Consider the following binders and their measured Kd readings.
molecular target: T1, recombinant YFV E protein (soluble E, sE; YFV Asibi strain) (Yellow fever virus, Asibi strain, UniProt Q6DV88 286-678); assay: BLI monovalent (IgG on tip)
T1 construct: also called YFV E antigen; YFV E monomer
T1 sequence (Q6DV88 286-678): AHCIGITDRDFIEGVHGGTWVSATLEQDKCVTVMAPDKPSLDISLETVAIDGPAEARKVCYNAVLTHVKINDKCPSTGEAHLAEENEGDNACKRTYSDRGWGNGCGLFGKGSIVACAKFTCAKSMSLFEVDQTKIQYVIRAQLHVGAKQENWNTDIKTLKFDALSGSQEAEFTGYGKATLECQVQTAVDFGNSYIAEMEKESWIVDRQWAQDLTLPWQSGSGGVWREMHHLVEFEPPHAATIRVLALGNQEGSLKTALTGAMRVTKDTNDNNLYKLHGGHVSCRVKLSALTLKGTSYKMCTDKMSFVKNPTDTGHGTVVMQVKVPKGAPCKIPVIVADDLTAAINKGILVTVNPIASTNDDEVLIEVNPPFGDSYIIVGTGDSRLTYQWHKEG
Value Type: Kd

INSERT INTO results (binder, value_type, result) VALUES
  ('ADI-42230 (antibody, V domains shown, full-length IgG; also called Antibody Number 47) VH: QVQLVESGGGVVQPGRSLRLSCAASGFTFSSYAMHWVRQAPGKGLEWVAVISHDGSNKYYADSVKGRFTISRDNSKNTLYLQINSLRAEDTAVYYCPRDGLPGANQYFFYYGMDVWGQGTTVTVSS VL: DIQVTQSPSSLSASVGDRVTITCRASQGISNYLAWYQQKPGKVPKLLIFAASTLRSGVPSRFRGSGSGTDFTLTISSLQPEDVATYYCQKYNSAPLTFGGGTKVEIK', 'Kd', '1.99 nM'),
  ('ADI-46739 (antibody, V domains shown, full-length IgG; also called Antibody Number 124) VH: EVQLVESGPGLVKPSGTLSLTCAVSGGSISSDNWWSWVRQAPGKGLEWIGEIYHTGSTSYNPSLKSRVTISLDKSKNHFSLKLNSLTAADTAVYYCAGKKWELLGFRFDPWGQGTLVTVSS VL: NFMLTQPPSVSAAPGQKVTISCSGSNSNIGNNFVSWYQQLPGTAPKLLIYDNNERPSGIPDRFSGSKSVTSATLGITGLQTGDEADYYCGTWDNSLGMVVFGGGTKLTVL', 'Kd', '> 100 nM'),
  ('ADI-42847 (antibody, V domains shown, full-length IgG; also called Antibody Number 48) VH: EVQLLESGPRLVKPSETLSLTCTVSGGSVRGGSHYWSWIRQPPGKGLEWIGYVYDSGSTNYNPSLKSRVSISVDMSKKQFSLKLRSVTAADTAVYHCVRVEEYVNNEEVRDYWGQGTMVTVSS VL: DIVMTQTPATLSLSPGERATLSCRASQSVSSYLAWYQQKPGQAPRLLIYGASNRATGIPARFSGSGSGTDFTLTISSLEPEDFAVYYCLQRTNWPFTFGPGTKVEIK', 'Kd', '3.21 nM');
